Reference source: patent US10077261B2

Target or system Fatty Acid Synthase Keto-reductase Domain (FASN KR) (Homo sapiens): recorded pIC50 listed per item.
A value of pIC50 is the negative decimal logarithm of a concentration given in moles per litre.

Molecule	Numeric Result
O=C(C1CC1)N1CC[C@@H](CN2C(=O)C3(CC3)N=C2c2ccc(-c3cccc(O)c3)cc2)C1 [compound 115]	6.91
O=C(C1CC1)N1CC(CN2C(=O)C3(CC3)N=C2c2ccc(-c3nc4ccc(Cl)cc4s3)cc2F)C1 [compound 274]	7.00
Cn1nc(CO)c2cc(-c3ccc(C4=NC5(CC5)C(=O)N4CC4CN(C(=O)C5CC5)C4)cc3)ccc21 [compound 530]	5.53
CS(=O)(=O)N1CCC2(CC1)N=C(c1ccc(-c3ccc4occc4c3)cc1)N(C[C@@H]1CCN(C(=O)C3CC3)C1)C2=O [compound 746]	5.97
Cc1cc(C2=NC3(CC3)C(=O)N2CC2CN(C(=O)C3CC3)C2)ccc1-c1ccc2[nH]ccc2c1 [compound 435]	5.91
Cc1cc2cc(-c3ccc(C4=NC5(CC5)C(=O)N4C[C@@H]4CCN(C(=O)C5CC5)C4)c(C)c3)ccc2o1 [compound 280]	6.90
Cc1oc2ccc(-c3ccc(C4=NC5(CC5)C(=O)N4C[C@@H]4CCN(C(=O)C5CC5)C4)cc3F)cc2c1C [compound 399]	5.88
Cc1cc(-c2ccc3c(c2)CCO3)ccc1C1=NC2(CCCC2)C(=O)N1C[C@@H]1CCN(C(=O)C2CC2)C1 [compound 884]	6.13
O=C(C1CC1)N1CC[C@@H](CN2C(=O)C3(CC3)N=C2c2ccc(-c3ccc4c(c3)COCC4)cc2)C1 [compound 453]	5.95
O=C(C1CC1)N1CC[C@@H](CN2C(=O)C3(CCNCC3)N=C2c2ccc(-c3ccc4cnccc4c3)cc2)C1 [compound 106]	6.22

Lookup: Return reported pIC50 for target or system Fatty Acid Synthase Keto-reductase Domain (FASN KR) (Homo sapiens), item O=C(C1CC1)N1CC[C@@H](CN2C(=O)C3(CC3)N=C2c2ccc(-c3nc4ccccc4o3)cc2)C1 [compound 307] .
Found: 6.84

Lookup: Return reported pIC50 for target or system Fatty Acid Synthase Keto-reductase Domain (FASN KR) (Homo sapiens), item CC(O)C(=O)N1CC(CN2C(=O)C3(CCOCC3)N=C2c2ccc(-c3ccc4cccnc4c3)cc2)C1 (stereo not shown) [compound 699] .
Found: 5.27

Lookup: Return reported pIC50 for target or system Fatty Acid Synthase Keto-reductase Domain (FASN KR) (Homo sapiens), item COC(=O)N1CCC2(CC1)N=C(c1ccc(-c3ccc4[nH]ccc4c3)cc1)N(CC1CN(C(=O)C3CC3)C1)C2=O [compound 17] .
Found: 6.46

Lookup: Return reported pIC50 for target or system Fatty Acid Synthase Keto-reductase Domain (FASN KR) (Homo sapiens), item O=C(C1CC1)N1CC[C@H](CN2C(=O)C3(CC3)N=C2c2ccc(-c3ccc(-c4cccc(Cl)c4)cc3)cc2)C1 [compound 412] .
Found: 6.37

Lookup: Return reported pIC50 for target or system Fatty Acid Synthase Keto-reductase Domain (FASN KR) (Homo sapiens), item COc1ccc2cc(-c3ccc(C4=NC5(CC5)C(=O)N4CC4CN(C(=O)C5(C)CC5)C4)c(C)c3)ccc2c1 [compound 332] .
Found: 7.22

====

# Assay System: hFASN enzyme (full length) (Homo sapiens)
# Construct: 10 μL hFASN enzyme (full length, 300 ng, purified in house); made in house
# Assay: Fatty Acid Synthase (FASN) inhibition scintillation proximity assay
# Assay type: biochemical
# Test Settings: read-out: Human FASN % inhibition @ 10 μM, 10 μM test compound
Catalogue of inhibition at 10 µM readings, one per entry.
Kindly answer with a numeric value in %, unit omitted.

Take a look at these entries with their results.
N#Cc1ccc(-c2ccc(C3=NC4(CC4)C(=O)N3C[C@@H]3CCN(C(=O)C4CC4)C3)cc2)cc1 108
O=C(C1CC1)N1CC(CN2C(=O)C3(CCN(C(=O)C(F)(F)F)CC3)N=C2c2ccc(-c3ccc4[nH]ccc4c3)cc2)C1 96
Cc1ccc2ccc(-c3ccc(C4=NC5(CC5)C(=O)N4CC4CN(C(=O)C5CC5)C4)cc3)cc2n1 85

Lookup: Return reported inhibition at 10 µM for target or system hFASN enzyme (full length) (Homo sapiens), item O=C(C1CC1)N1CC(CN2C(=O)C3(CCOCC3)N=C2c2ccc(-c3ccc4cccnc4c3)cc2)C1 .
Found: 92

====

Catalogue of inhibition at 10 µM readings, one per entry.
# Assay System: hFASN enzyme (full length) (Homo sapiens, UniProt P49327)
# Construct: 10 μL hFASN enzyme (full length, 300 ng, purified in house); made in house
# Sequence (P49327 whole entry): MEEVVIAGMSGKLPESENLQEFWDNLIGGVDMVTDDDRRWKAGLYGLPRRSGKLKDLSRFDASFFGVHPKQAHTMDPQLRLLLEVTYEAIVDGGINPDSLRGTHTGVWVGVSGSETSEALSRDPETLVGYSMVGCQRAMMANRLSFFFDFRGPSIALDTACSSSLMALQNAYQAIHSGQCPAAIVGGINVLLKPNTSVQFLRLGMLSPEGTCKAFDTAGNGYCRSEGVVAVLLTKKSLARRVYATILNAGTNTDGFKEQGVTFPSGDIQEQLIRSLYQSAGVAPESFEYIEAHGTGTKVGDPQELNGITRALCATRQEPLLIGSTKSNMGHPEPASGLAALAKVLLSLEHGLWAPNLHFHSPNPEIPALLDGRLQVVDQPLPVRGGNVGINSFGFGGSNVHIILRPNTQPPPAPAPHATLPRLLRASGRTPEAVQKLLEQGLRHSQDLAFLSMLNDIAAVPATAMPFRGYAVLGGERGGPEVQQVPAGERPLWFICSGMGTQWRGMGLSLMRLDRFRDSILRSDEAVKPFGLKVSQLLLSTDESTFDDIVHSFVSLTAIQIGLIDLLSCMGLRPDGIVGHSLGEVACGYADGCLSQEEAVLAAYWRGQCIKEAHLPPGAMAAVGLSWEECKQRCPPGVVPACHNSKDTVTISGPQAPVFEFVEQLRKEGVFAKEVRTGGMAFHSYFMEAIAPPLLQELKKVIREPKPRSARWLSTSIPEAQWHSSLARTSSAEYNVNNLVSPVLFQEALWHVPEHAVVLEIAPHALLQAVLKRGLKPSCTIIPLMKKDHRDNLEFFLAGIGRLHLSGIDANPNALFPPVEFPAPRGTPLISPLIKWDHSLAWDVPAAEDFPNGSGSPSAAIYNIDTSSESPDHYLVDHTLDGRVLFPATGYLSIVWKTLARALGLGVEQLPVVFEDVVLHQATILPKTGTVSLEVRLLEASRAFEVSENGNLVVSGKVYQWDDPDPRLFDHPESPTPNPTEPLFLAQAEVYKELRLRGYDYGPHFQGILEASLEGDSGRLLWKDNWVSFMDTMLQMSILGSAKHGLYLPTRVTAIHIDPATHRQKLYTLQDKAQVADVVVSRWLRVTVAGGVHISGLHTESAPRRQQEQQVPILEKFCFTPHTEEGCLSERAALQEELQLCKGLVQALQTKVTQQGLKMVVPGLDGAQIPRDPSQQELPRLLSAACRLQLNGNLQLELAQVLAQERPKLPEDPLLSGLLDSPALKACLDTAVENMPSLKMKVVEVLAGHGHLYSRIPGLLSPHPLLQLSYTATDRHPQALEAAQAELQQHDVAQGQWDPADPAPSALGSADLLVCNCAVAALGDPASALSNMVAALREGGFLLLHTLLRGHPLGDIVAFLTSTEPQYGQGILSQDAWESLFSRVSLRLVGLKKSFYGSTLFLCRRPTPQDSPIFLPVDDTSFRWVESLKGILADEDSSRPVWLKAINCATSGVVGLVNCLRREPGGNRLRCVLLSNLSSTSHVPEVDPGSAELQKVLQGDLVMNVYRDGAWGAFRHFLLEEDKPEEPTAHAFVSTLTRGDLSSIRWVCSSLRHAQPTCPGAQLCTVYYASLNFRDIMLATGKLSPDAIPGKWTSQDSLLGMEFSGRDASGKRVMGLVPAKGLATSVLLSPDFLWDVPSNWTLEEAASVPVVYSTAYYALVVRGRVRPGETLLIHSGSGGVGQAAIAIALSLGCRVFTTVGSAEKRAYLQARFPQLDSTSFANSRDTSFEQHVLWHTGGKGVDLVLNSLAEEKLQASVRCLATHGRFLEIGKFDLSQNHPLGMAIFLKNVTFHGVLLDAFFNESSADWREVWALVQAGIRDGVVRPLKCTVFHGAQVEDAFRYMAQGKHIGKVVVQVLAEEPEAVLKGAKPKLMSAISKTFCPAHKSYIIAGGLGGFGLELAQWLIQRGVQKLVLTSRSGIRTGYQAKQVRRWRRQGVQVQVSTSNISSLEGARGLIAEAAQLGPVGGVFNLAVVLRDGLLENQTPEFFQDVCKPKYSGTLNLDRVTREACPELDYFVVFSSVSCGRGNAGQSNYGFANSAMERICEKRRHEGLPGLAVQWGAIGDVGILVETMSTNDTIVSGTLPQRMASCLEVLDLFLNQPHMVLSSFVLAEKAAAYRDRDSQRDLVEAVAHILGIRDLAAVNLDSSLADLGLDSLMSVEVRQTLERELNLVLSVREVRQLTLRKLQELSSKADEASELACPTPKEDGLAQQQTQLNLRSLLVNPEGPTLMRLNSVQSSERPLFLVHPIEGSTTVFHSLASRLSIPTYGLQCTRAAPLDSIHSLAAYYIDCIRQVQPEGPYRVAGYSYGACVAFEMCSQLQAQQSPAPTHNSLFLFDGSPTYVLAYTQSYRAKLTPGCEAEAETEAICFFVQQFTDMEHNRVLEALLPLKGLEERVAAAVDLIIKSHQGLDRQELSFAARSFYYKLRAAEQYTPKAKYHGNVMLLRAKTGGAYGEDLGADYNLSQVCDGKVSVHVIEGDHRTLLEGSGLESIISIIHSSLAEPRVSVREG
# Assay: Fatty Acid Synthase (FASN) inhibition scintillation proximity assay
# Type: biochemical
# Test Settings: read-out: Human FASN % inhibition @ 10 μM, 10 μM test compound
Kindly answer with a numeric value in %, unit omitted.

Take a look at these entries with their results.
Compound	Assay System	Unit Descriptor	Numeric Result
O=C(N1CCCC1)N1CC[C@@H](CN2C(=O)C3(CCCC3)N=C2c2ccc(-c3ccc4occc4c3)cc2)C1	hFASN enzyme (full length) (Homo sapiens, UniProt P49327)	%	108
O=C(C1CC1)N1CC[C@@H](CN2C(=O)C3(CCOC3)N=C2c2ccc(-c3ccc4cccnc4c3)cc2)C1 (stereo partly shown)	hFASN enzyme (full length) (Homo sapiens, UniProt P49327)	%	98
COCc1nn(C)c2ccc(-c3ccc(C4=NC5(CC5)C(=O)N4CC4CN(C(=O)C5CC5)C4)c(C)c3)cc12	hFASN enzyme (full length) (Homo sapiens, UniProt P49327)	%	93
O=C(C1CC1)N1CC(CN2C(=O)C3(CC3)N=C2c2ccc(-c3ccc4[nH]ncc4c3)c(F)c2)C1	hFASN enzyme (full length) (Homo sapiens, UniProt P49327)	%	82

Lookup: Quote inhibition at 10 µM reported for Nc1cc(-c2ccc(C3=NC4(CC4)C(=O)N3CC3CN(C(=O)C4CC4)C3)cc2)ccc1O please.
Found: 78.6

Lookup: Quote inhibition at 10 µM reported for Nc1cncc(-c2ccc(C3=NC4(CC4)C(=O)N3C[C@@H]3CCN(C(=O)C4CC4)C3)cc2)c1 please.
Found: 44

Lookup: Quote inhibition at 10 µM reported for Cc1cc(-c2ccc3c(c2)CCO3)ccc1C1=NC2(CCCC2)C(=O)N1C[C@@H]1CCN(C(=O)C2CC2)C1 please.
Found: 100

Lookup: Quote inhibition at 10 µM reported for Cc1cc2cc(-c3ccc(C4=NC5(CCN(C(=O)CN(C)C)CC5)C(=O)N4C[C@@H]4CCN(C(=O)C5CC5)C4)cc3)ccc2o1 please.
Found: 109

Lookup: Quote inhibition at 10 µM reported for O=C(C1CC1)N1CC[C@@H](CN2C(=O)C3(CC3)N=C2c2ccc(-c3cccc(NS(=O)(=O)C4CC4)c3)cc2F)C1 please.
Found: 100

====

# Assay System: hFASN enzyme (full length) (Homo sapiens, UniProt P49327)
# Construct: 10 μL hFASN enzyme (full length, 300 ng, purified in house); made in house
# Assay: Fatty Acid Synthase (FASN) inhibition scintillation proximity assay
# Assay type: biochemical
# Test Settings: read-out: Human FASN % inhibition @ 10 μM, 10 μM test compound
Label true (1) when inhibition at 10 µM is at or above 80%; anything below gets false (0).

Before answering, review these 3 worked examples.
Compound	Label
Cc1sc2ccc(-c3ccc(C4=NC5(CCN(C(=O)CN(C)C)CC5)C(=O)N4C[C@@H]4CCN(C(=O)C5CC5)C4)cc3)cc2c1C	true (1)
O=C(C1CC1)N1CC[C@@H](CN2C(=O)C3(CC3)N=C2c2ccc(-c3ccc4c(=O)[nH]ccc4c3)cc2)C1	true (1)
Cc1cc(-c2ccc3c(cnn3C)c2)ccc1C1=NC2(CC2)C(=O)N1CC1CN(C(=O)C(C)C)C1	true (1)

Lookup: In plain terms: is recorded inhibition at 10 µM at least 80% for CC(O)C(=O)N1CC(CN2C(=O)C3(CCOC3)N=C2c2ccc(-c3ccc4cccnc4c3)cc2)C1 (stereo not shown) ?
Found: true (1)

Lookup: In plain terms: is recorded inhibition at 10 µM at least 80% for CC(C)N1CCC2(CC1)N=C(c1ccc(-c3ccc4cnccc4c3)cc1)N(CC1CN(C(=O)C3CC3)C1)C2=O ?
Found: false (0)

Lookup: In plain terms: is recorded inhibition at 10 µM at least 80% for CC(C)n1cc2cc(-c3ccc(C4=NC5(CC5)C(=O)N4CC4CN(C(=O)C5CC5)C4)cc3)ccc2n1 ?
Found: false (0)

====

# Assay System: Fatty Acid Synthase Keto-reductase Domain (FASN KR) (Homo sapiens)
pIC50: −log10 of the molar value.
Each entry belongs to exactly one class, chosen by where its pIC50 falls: lowest: < 6; middle: ≥ 6 and < 7; highest: ≥ 7

Before answering, review these 3 worked examples.
Cn1cc2cc(-c3ccc(C4=NC5(CC5)C(=O)N4CC4CN(C(=O)C5CC5)C4)cc3)ccc2n1 lowest
Cn1ncc2c(-c3ccc(C4=NC5(CC5)C(=O)N4CC4CN(C(=O)C5CC5)C4)cc3)cccc21 middle
Cc1cc2cc(-c3ccc(C4=NC5(CC5)C(=O)N4C[C@@H]4CCN(C(=O)C5CC5)C4)c(F)c3)ccc2s1 highest

Please examine the following record next.
Lookup: Hi there! Could you help me figure out the category for O=C(C1CC1)N1CCC(CN2C(=O)C3(CC3)N=C2c2ccc(-c3ccc4[nH]ncc4c3)cc2)CC1 please?
Found: lowest
